# Test system: wheat
# ASSAY_NAME: Test B pre/postemergence wheat
# Assay type: in vivo, Triticum aestivum
# CONDITION_NOTES: Preemergence, Rate 125 g/ha; scale 0 to 10, 0 is no effect, 10 is complete control
Some molecules, each annotated with its measured Wheat plant response rating.
ENDPOINT_LABEL: Wheat plant response rating

1. COC(=O)CCCn1c(=O)on(C(=O)N(c2ccc(F)cc2F)C(C)C)c1=O = 2
2. CC(C)N(C(=O)n1oc(=O)n(CC(=O)C2CC2)c1=O)c1ccc(F)cc1F = 0
3. CC(C)N(C(=O)n1oc(=O)n(C(C)C(=O)c2ccccc2)c1=O)c1ccc(F)cc1F (centres unmarked) = 0
4. CC(C)N(C(=O)n1oc(=O)n(CCNC(=O)CCl)c1=O)c1ccccc1 = 0
5. CC(C)N(C(=O)n1oc(=O)n(CCC2OCCCO2)c1=O)c1ccccc1 = 4

###

# Test system: giant foxtail
# ASSAY_NAME: Test B pre/postemergence giant foxtail
# Type: in vivo, Setaria faberii
# CONDITION_NOTES: Preemergence, Rate 250 g/ha; scale of 0 to 10 where 0 is no effect and 10 is complete control
Cut-off 9 on Giant foxtail plant response rating, inclusive. At or above means y; below means n.

1. CCN(CC)C(=O)Cn1c(=O)on(C(=O)N(c2ccc(F)cc2)C(C)C)c1=O = n
2. COC(Cn1c(=O)on(C(=O)N(c2ccc(F)cc2)C(C)C)c1=O)OC = y
3. CC(C)N(C(=O)n1oc(=O)n(-c2ccc3ccccc3c2)c1=O)c1ccc(F)cc1 = n
4. C=CCn1c(=O)on(C(=O)N(c2ccc(Cl)cc2)C(C)C2CC2)c1=O (stereo not drawn) = n
5. CC(C)C(C)n1c(=O)on(C(=O)N(c2ccccc2)C(C)C)c1=O (stereo not drawn) = y

###

A collection of molecules and their measured Corn plant response rating
# Tested on: corn
# ASSAY_NAME: Test B pre/postemergence corn
# Assay type: in vivo, Zea mays
# CONDITION_NOTES: Postemergence, Rate 125 g/ha; scale of 0 to 10 where 0 is no effect and 10 is complete control
ENDPOINT_LABEL: Corn plant response rating

1) CC[C@H](C)n1c(=O)on(C(=O)N(c2ccc(F)cc2F)C(C)C)c1=O = 0
2) CC(C)N(C(=O)n1oc(=O)n(CCCCCl)c1=O)c1ccccc1 = 1
3) C#CC=CC(C)(C)n1c(=O)on(C(=O)N(c2ccccc2)C(C)C)c1=O = 0
4) CC(C)N(C(=O)n1oc(=O)n(CC2CCCCO2)c1=O)c1ccc(Cl)cc1 (centres unmarked) = 0
5) C=CCn1c(=O)on(C(=O)N(c2ccc(F)cc2F)C(C)C)c1=O = 0
6) CC(C)N(C(=O)n1oc(=O)n(C(C)(C)C)c1=O)c1ccc(Cl)cc1 = 0
7) CON=CC(C)n1c(=O)on(C(=O)N(c2ccccc2)C(C)C)c1=O (centres unmarked) = 2
8) Cc1nn(C)c(Cl)c1-n1c(=O)on(C(=O)N(c2ccc(F)cc2F)C(C)C)c1=O = 0

###

Each entry below lists one item and its recorded Sugarbeets plant response rating value.
# Test system: sugar beet
# ASSAY_NAME: Test B pre/postemergence sugar beet
# Assay type: in vivo, Beta vulgaris
# CONDITION_NOTES: Preemergence, Rate 500 g/ha; scale of 0 to 10 where 0 is no effect and 10 is complete control
ENDPOINT_LABEL: Sugarbeets plant response rating

1. CC(C)N(C(=O)n1oc(=O)n(N2C(C)CCCC2C)c1=O)c1ccc(F)cc1 (centres unmarked) = 0
2. CCC=CCn1c(=O)on(C(=O)N(c2ccccc2)C(C)C)c1=O = 0
3. C=CCCCn1c(=O)on(C(=O)N(c2ccc(Cl)cc2)C(C)C)c1=O = 2
4. CC(C)N(C(=O)n1oc(=O)n(CC2CCC2)c1=O)c1ccc(F)cc1F = 3
5. CC(C)C(C)n1c(=O)on(C(=O)N(c2ccccc2)C(C)C)c1=O (centres unmarked) = 3
6. CC(C)N(C(=O)n1oc(=O)n(-c2ccc3ccccc3c2)c1=O)c1ccc(F)cc1 = 0
7. CC(C)N(C(=O)n1oc(=O)n(CCCCF)c1=O)c1ccc(F)cc1F = 7
8. CCN(C(=O)n1oc(=O)n(C2CCCCC2)c1=O)C1CCCCC1 = 0
9. COC(Cn1c(=O)on(C(=O)N(c2ccc(F)cc2)C(C)C)c1=O)OC = 8
10. CC(C)N(C(=O)n1oc(=O)n(C[Si](C)(C)C)c1=O)c1ccccc1 = 0
11. CC(C)N(C(=O)n1oc(=O)n(CC(=O)N(C)C)c1=O)c1ccccc1 = 6
12. CCCCCCn1c(=O)on(C(=O)N(c2ccc(F)cc2)C(C)C)c1=O = 4
13. CC(C)n1c(=O)on(C(=O)N(c2ccc(Cl)cc2Cl)C2CCC2)c1=O = 0
14. CC(C)N(C(=O)n1oc(=O)n(C2CCOCC2)c1=O)c1ccc(F)cc1 = 10

###

# Tested on: pigweed
# ASSAY_NAME: Test B pre/postemergence pigweed
# Format: in vivo, Amaranthus retroflexus
# CONDITION_NOTES: Postemergence, Rate 125 g/ha; scale of 0 to 10 where 0 is no effect and 10 is complete control
Catalogue of Plant response rating, Redroot pigweed readings, one per entry.
ENDPOINT_LABEL: Plant response rating, Redroot pigweed

1. CC(C)N(C(=O)n1oc(=O)n(CC(=O)N(C)C)c1=O)c1ccccc1 = 0
2. COCCn1c(=O)on(C(=O)N(c2ccc(F)cc2)C(C)C)c1=O = 3
3. C=C(Cn1c(=O)on(C(=O)N(c2ccccc2)C(C)C)c1=O)c1cccc(Cl)n1 = 0
4. COCCn1c(=O)on(C(=O)N(c2ccc(F)cc2F)C(C)C)c1=O = 3
5. C=C(C)Cn1c(=O)on(C(=O)N(c2ccccc2)C(C)C)c1=O = 0

###

# System: morningglory
# ASSAY_NAME: Test B pre/postemergence morningglory
# Assay type: in vivo, Ipomoea hederacea
# CONDITION_NOTES: Rate 250 g/ha, Postemergence; scale of 0 to 10 where 0 is no effect and 10 is complete control
ENDPOINT_LABEL: Plant response rating, Morningglory

1) C=CCn1c(=O)on(C(=O)N(c2ccc(Cl)cc2)C(C)C2CC2)c1=O (stereo not drawn) = 8
2) CCN(C(=O)n1oc(=O)n(C2CCCCC2)c1=O)C1CCCCC1 = 2
3) CC(C)N(C(=O)n1oc(=O)n(CC2CCC2)c1=O)c1ccc(F)cc1F = 3
4) CCC=CCn1c(=O)on(C(=O)N(c2ccccc2)C(C)C)c1=O = 10
5) CC(C)N(C(=O)n1oc(=O)n(C2CCOCC2)c1=O)c1ccc(F)cc1 = 7
6) CC(C)N(C(=O)n1oc(=O)n(CC2CCC2)c1=O)c1ccccc1 = 8

###

Below: a set of entries, each annotated with reported Sugarbeets plant response rating.
# Test system: sugar beet
# ASSAY_NAME: Test B pre/postemergence sugar beet
# Format: in vivo, Beta vulgaris
# CONDITION_NOTES: Preemergence, Rate 250 g/ha; scale of 0 to 10 where 0 is no effect and 10 is complete control
ENDPOINT_LABEL: Sugarbeets plant response rating

1) CC(C)N(C(=O)n1oc(=O)n(C(C)C)c1=O)c1cnccn1 = 0
2) CCCCCCn1c(=O)on(C(=O)N(c2ccc(F)cc2)C(C)C)c1=O = 0
3) CCC(CC)n1c(=O)on(C(=O)N(c2ccccc2)C(C)C)c1=O = 2
4) Cc1ccccc1-n1c(=O)on(C(=O)N(c2ccc(OC(F)(F)F)cc2)C(C)C)c1=O = 0
5) C#CCn1c(=O)on(C(=O)N(c2ccc(F)cc2)C(C)C)c1=O = 5

###

# Tested on: wheat
# ASSAY_NAME: Test B pre/postemergence wheat
# Type: in vivo, Triticum aestivum
# CONDITION_NOTES: Rate 250 g/ha, Postemergence; scale 0 to 10, 0 is no effect, 10 is complete control
Reported Plant response rating, Wheat values for the following compounds.
ENDPOINT_LABEL: Plant response rating, Wheat

1) CC(C)N(C(=O)n1oc(=O)n(C(C)(C)C)c1=O)c1ccc(Cl)cc1 [Compound 118] = 0
2) CC(C)c1noc(C(C)C)c1-n1c(=O)on(C(=O)N(c2ccc(F)cc2)C(C)C)c1=O [Compound 135] = 0
3) C=CCn1c(=O)on(C(=O)N(c2ccc(Cl)cc2)C(C)C)c1=O [Compound 105] = 0
4) CCCn1c(=O)on(C(=O)N(c2ccc(F)cc2)C(C)C)c1=O [Compound 91] = 4
5) Cc1ccccc1-n1c(=O)on(C(=O)N(c2ccc(Br)cc2)C(C)C)c1=O [Compound 175] = 0

###

# System: corn
# ASSAY_NAME: Test B pre/postemergence corn
# Format: in vivo, Zea mays
# CONDITION_NOTES: Preemergence, Rate 500 g/ha; scale of 0 to 10 where 0 is no effect and 10 is complete control
ENDPOINT_LABEL: Plant response rating, Corn

1. CSc1ccc(N(C(=O)n2oc(=O)n(-c3ccccc3C)c2=O)C(C)C)cc1 [Compound 205] = 0
2. CC(C)N(C(=O)n1oc(=O)n(N(C)C)c1=O)c1ccccc1 [Compound 225] = 6
3. CC(C)N(C(=O)n1oc(=O)n(CC2CCCCO2)c1=O)c1ccc(Cl)cc1 (stereo not shown) [Compound 660] = 0
4. CC(C)N(C(=O)n1oc(=O)n(Cc2ccco2)c1=O)c1ccc(F)cc1F [Compound 208] = 0
5. COC(=O)C(CCO)n1c(=O)on(C(=O)N(c2ccc(F)cc2)C(C)C)c1=O (stereo not shown) [Compound 680] = 0
6. CC(C)N(C(=O)n1oc(=O)n(C(C)C)c1=O)c1ccncc1 [Compound 663] = 0
7. CC(C)N(C(=O)n1oc(=O)n(CC2CCCCO2)c1=O)c1ccccc1 (stereo not shown) [Compound 659] = 9
8. C=C(Cl)Cn1c(=O)on(C(=O)N(c2ccc(F)cc2F)C(C)C)c1=O [Compound 634] = 0
9. C=C(Cc1ccccc1)Cn1c(=O)on(C(=O)N(c2ccccc2)C(C)C)c1=O [Compound 650] = 0
10. C=C(Cn1c(=O)on(C(=O)N(c2ccccc2)C(C)C)c1=O)c1cccc(Cl)n1 [Compound 605] = 0
11. CC(C)N(C(=O)n1oc(=O)n(CC(C)(C)C)c1=O)c1ccc(F)cc1F [Compound 277] = 3
12. C#CCn1c(=O)on(C(=O)N(c2ccc(F)cc2)C(C)C)c1=O [Compound 212] = 0
13. CCOP(=O)(Cn1c(=O)on(C(=O)N(c2ccc(Cl)cc2)C(C)C)c1=O)OCC [Compound 599] = 0
14. CCC(C)n1c(=O)on(C(=O)N(c2ccccc2)C(C)C)c1=O (stereo not shown) [Compound 610] = 8
15. COCCn1c(=O)on(C(=O)N(c2ccc(F)cc2)C(C)C)c1=O [Compound 627] = 9
16. COc1cc(C)cc(C)c1-n1c(=O)on(C(=O)N(c2ccc(F)cc2F)C(C)C)c1=O [Compound 223] = 0
